# credit: PubChem BioAssay (NCI)

test_summary: NCI Yeast Anticancer Drug Screen. Data for the mec2-1 strain (AID 157)
stated_conditions: S. cerevisiae mec2-1 strain, at 5.0 µM (retest, dose inferred, filed as 0.5)
The panel holds about 79,000 compounds, 15% with a hit somewhere; the sample as a whole holds those more often. Calls of active or inactive are those of the source. Rule as the data show it: active = growth inhibition above about 70%; inactive = the rest.
Outcome field: choose from true (1) for active, false (0) for inactive

{"compound": "Clc1nnc(Cl)s1", "assigned_category": "false (0)"}

Data request: Check the results log: what was the call for CC(C)(C)/C=N/NS(=O)(=O)c1ccccc1 ?
Data returned: false (0)

Data request: # repeat for OCCc1c2ccccc2cc2ccccc12
Data returned: false (0)

Data request: // next record N#C/C(=C1C=C/C(=N/O)c2ccccc2/1)c1ccc(Cl)cc1
Data returned: false (0)
